assay: Concentrations of ticagrelor and active metabolite AR-C124910XX by LC-MS in unstable angina patients; conditions: human, plasma, oral, 180 mg, AUC TPC, total exposure to ticagrelor, Median (Q1–Q3), area under the ticagrelor plasma concentration curve, 0–360 min
reportedProperty: AUC (ng·h/mL)
Write it as a number; the unit ng·h/mL goes unstated.

Request: Note down AUC recorded for CCCSc1nc(N[C@@H]2C[C@H]2c2ccc(F)c(F)c2)c2nnn([C@@H]3C[C@H](OCCO)[C@@H](O)[C@H]3O)c2n1
Response: 2070

* * *

test: Concentrations of ticagrelor and active metabolite AR-C124910XX by LC-MS in unstable angina patients; settings: human, plasma, oral, 180 mg, Ticagrelor plasma concentration, Median (Q1–Q3), 360 min post ticagrelor LD 180 mg
reportedProperty: concentration at 360 min
Respond with a number, then the unit of measure.

Request: Complete the entry with concentration at 360 min for CCCSc1nc(N[C@@H]2C[C@H]2c2ccc(F)c(F)c2)c2nnn([C@@H]3C[C@H](OCCO)[C@@H](O)[C@H]3O)c2n1
Response: 290 ng/mL

* * *

assay: Concentrations of ticagrelor and active metabolite AR-C124910XX by LC-MS in unstable angina patients; conditions: human, plasma, oral, 180 mg, Ticagrelor plasma concentration, Median (Q1–Q3), 15 min post ticagrelor LD 180 mg
reportedProperty: concentration at 15 min (ng/mL)
Numbers only; they are read as ng/mL.

Request: Check the records and state concentration at 15 min for CCCSc1nc(N[C@@H]2C[C@H]2c2ccc(F)c(F)c2)c2nnn([C@@H]3C[C@H](OCCO)[C@@H](O)[C@H]3O)c2n1
Response: 13

* * *

assay: Concentrations of ticagrelor and active metabolite AR-C124910XX by LC-MS in unstable angina patients; settings: human, plasma, oral, 180 mg, Ticagrelor plasma concentration, Mean ± SD, 15 min post ticagrelor LD 180 mg
reportedProperty: concentration at 15 min (ng/mL)
Numeric answer only, unit ng/mL assumed.

Request: In one line, give reported concentration at 15 min of the entry CCCSc1nc(N[C@@H]2C[C@H]2c2ccc(F)c(F)c2)c2nnn([C@@H]3C[C@H](OCCO)[C@@H](O)[C@H]3O)c2n1 [Ticagrelor, ticagrelor] .
Response: 20

* * *

test: Concentrations of ticagrelor and active metabolite AR-C124910XX by LC-MS in unstable angina patients; details: human, plasma, oral, 180 mg, Ticagrelor plasma concentration, Median (Q1–Q3), 30 min post ticagrelor LD 180 mg
reportedProperty: concentration at 30 min (ng/mL)
Reply with just the number (in ng/mL).

Request: // Input: CCCSc1nc(N[C@@H]2C[C@H]2c2ccc(F)c(F)c2)c2nnn([C@@H]3C[C@H](OCCO)[C@@H](O)[C@H]3O)c2n1 . Output its concentration at 30 min only.
Response: 69

* * *

assay: Concentrations of ticagrelor and active metabolite AR-C124910XX by LC-MS in unstable angina patients; conditions: human, plasma, oral, 180 mg, Ticagrelor plasma concentration, Median (Q1–Q3), 45 min post ticagrelor LD 180 mg
reportedProperty: concentration at 45 min (ng/mL)
Supply the numeric figure in ng/mL, leaving out any unit text.

Request: Specify reported concentration at 45 min for the compound shown: CCCSc1nc(N[C@@H]2C[C@H]2c2ccc(F)c(F)c2)c2nnn([C@@H]3C[C@H](OCCO)[C@@H](O)[C@H]3O)c2n1
Response: 210

* * *

assay: Concentrations of ticagrelor and active metabolite AR-C124910XX by LC-MS in unstable angina patients; conditions: human, plasma, oral, 180 mg, Ticagrelor plasma concentration, Mean ± SD, 45 min post ticagrelor LD 180 mg
reportedProperty: concentration at 45 min
Put down the number, then write its unit next to it.

Request: Note down concentration at 45 min recorded for CCCSc1nc(N[C@@H]2C[C@H]2c2ccc(F)c(F)c2)c2nnn([C@@H]3C[C@H](OCCO)[C@@H](O)[C@H]3O)c2n1
Response: 329 ng/mL

* * *

assay: Concentrations of ticagrelor and active metabolite AR-C124910XX by LC-MS in unstable angina patients; conditions: human, plasma, oral, 180 mg, Ticagrelor plasma concentration, Mean ± SD, 360 min post ticagrelor LD 180 mg
reportedProperty: concentration at 360 min (ng/mL)
Form entry: value (ng/mL) — number only.

Request: Indicate the recorded concentration at 360 min value for this compound: CCCSc1nc(N[C@@H]2C[C@H]2c2ccc(F)c(F)c2)c2nnn([C@@H]3C[C@H](OCCO)[C@@H](O)[C@H]3O)c2n1 [Ticagrelor, ticagrelor]
Response: 291

* * *

experiment: Concentrations of ticagrelor and active metabolite AR-C124910XX by LC-MS in unstable angina patients; conditions: human, plasma, oral, 180 mg, Ticagrelor plasma concentration, Mean ± SD, 30 min post ticagrelor LD 180 mg
reportedProperty: concentration at 30 min (µg/mL)
Give a bare numeral; the unit µg/mL is implied.

Request: Please report concentration at 30 min for the following molecule: CCCSc1nc(N[C@@H]2C[C@H]2c2ccc(F)c(F)c2)c2nnn([C@@H]3C[C@H](OCCO)[C@@H](O)[C@H]3O)c2n1
Response: 0.171

* * *

test: Concentrations of ticagrelor and active metabolite AR-C124910XX by LC-MS in unstable angina patients; conditions: human, plasma, oral, 180 mg, Ticagrelor plasma concentration, Median (Q1–Q3), 120 min post ticagrelor LD 180 mg
reportedProperty: concentration at 120 min (ng/mL)
Use ng/mL as the unit, but write only the number.

Request: Entry CCCSc1nc(N[C@@H]2C[C@H]2c2ccc(F)c(F)c2)c2nnn([C@@H]3C[C@H](OCCO)[C@@H](O)[C@H]3O)c2n1 needs its concentration at 120 min filled in; supply it.
Response: 569

* * *

experiment: Concentrations of ticagrelor and active metabolite AR-C124910XX by LC-MS in unstable angina patients; conditions: human, plasma, oral, 180 mg, Ticagrelor plasma concentration, Mean ± SD, 60 min post ticagrelor LD 180 mg
reportedProperty: concentration at 60 min (ng/mL)
Give a bare numeral; the unit ng/mL is implied.

Request: Tell me concentration at 60 min reported for CCCSc1nc(N[C@@H]2C[C@H]2c2ccc(F)c(F)c2)c2nnn([C@@H]3C[C@H](OCCO)[C@@H](O)[C@H]3O)c2n1
Response: 464

* * *

test: Concentrations of ticagrelor and active metabolite AR-C124910XX by LC-MS in unstable angina patients; conditions: human, plasma, oral, 180 mg, AUC TPC, total exposure to ticagrelor, Mean ± SD, area under the ticagrelor plasma concentration curve, 0–360 min
reportedProperty: AUC (ng·h/mL)
Report as a plain number; the unit ng·h/mL is understood.

Request: Determine from records and report AUC for CCCSc1nc(N[C@@H]2C[C@H]2c2ccc(F)c(F)c2)c2nnn([C@@H]3C[C@H](OCCO)[C@@H](O)[C@H]3O)c2n1
Response: 2310

From: paper PMC13421293
